# Test system: Key Grass and Sedge Weeds as well as Grass Crops
# assaySummary: Post-emergent Test II herbicidal activity (Table 6)
# Type: in vivo
# setupConditions: post-emergence, 336 h, ECHCG: barnyardgrass (Echinochloa crus-galli), 140 g ai/ha, read-out: Visual Growth Reduction (%) 14 Days After Application, ECHCG
Recorded pest or weed control at 140 g/ha by entry

Hello, please tell me recorded pest or weed control at 140 g/ha for this one: Nc1c(F)c(-c2ccc(OC(F)F)cc2)nc(C(=O)O)c1Cl 95 to 100%

***
Complete the entry with pest or weed control at 140 g/ha for COC(=O)c1nc(-c2ccc(I)c(F)c2F)nc(N)c1OC 95 to 100%

Give the reported value of pest or weed control at 140 g/ha for this record: COC(=O)c1nc(-c2ccc(I)c(F)c2F)c(F)c(N)c1Cl 95 to 100%

Identify pest or weed control at 140 g/ha associated with the compound COC(=O)c1nc(-c2ccc(F)cc2)c(F)c(N)c1Cl 95 to 100%

====

# Test system: APESV: bentgrass (Apera spica-venti)
# assaySummary: Post-emergent Test III, herbicidal activity in wheat and barley
# Assay type: in vivo
# setupConditions: probit analysis, dose for growth reduction of 80 percent, 21 days after application
assayEndpoint: GR80 APESV (g ai/ha)
I only need the number, in g ai/ha, no unit after it.

Examples with answers:
Name the recorded GR80 APESV of the compound listed here: Nc1c(F)c(-c2ccc(Br)cc2)nc(C(=O)O)c1Cl [Compound 20] 12

Hello, please tell me recorded GR80 APESV for this one: COC(=O)c1nc(-c2ccc(Cl)c(F)c2)c(F)c(N)c1Cl [Compound 216] 20

Supply GR80 APESV value. Item: Nc1c(F)c(-c2ccc(I)cc2)nc(C(=O)O)c1Cl [Compound 45] 25

Others:
Find the measured GR80 APESV of COC(=O)c1nc(-c2ccc(Br)c(F)c2F)c(F)c(N)c1Cl [Compound 109] and report it. 6

Specify measured GR80 APESV for Nc1c(F)c(-c2ccc(Cl)c(F)c2)nc(C(=O)O)c1Cl [Compound 217] . 15

====

# Tested on: Key Broadleaf Weed and Crop Species
# assaySummary: Post-emergent Test II herbicidal activity (Table 5)
# Format: in vivo
# setupConditions: post-emergence, 336 h; CHEAL: lambsquarters (Chenopodium album); 70 g ai/ha; post-emergent; 14 days after application; read-out: Visual Growth Reduction (%) 14 Days After Application CHEAL
This section presents molecules with their documented pest or weed control at 70 g/ha values.

See these solved cases before continuing.
Given COc1c(N)nc(-c2cc(F)c(I)cc2F)nc1C(=O)O , report its pest or weed control at 70 g/ha on Key Broadleaf Weed and Crop Species. 95 to 100%

Give pest or weed control at 70 g/ha for this entry on Key Broadleaf Weed and Crop Species: COC(=O)c1nc(-c2cc(F)c(C(F)(F)F)cc2F)c(F)c(N)c1Cl 85 to 94%

Answer briefly: pest or weed control at 70 g/ha recorded on Key Broadleaf Weed and Crop Species for COC(=O)c1nc(-c2ccc(I)cc2)c(C)c(N)c1Cl 95 to 100%

New cases:
Under Key Broadleaf Weed and Crop Species: report pest or weed control at 70 g/ha of COC(=O)c1nc(-c2cc(F)c(C(F)F)cc2F)c(F)c(N)c1Cl . 85 to 94%

Give the observed pest or weed control at 70 g/ha of COC(=O)c1nc(-c2cc(F)c(C#N)cc2F)c(F)c(N)c1Cl for Key Broadleaf Weed and Crop Species. 85 to 94%

State pest or weed control at 70 g/ha on Key Broadleaf Weed and Crop Species. Entry: Nc1cc(-c2ccc(I)cc2F)nc(C(=O)O)c1Cl 95 to 100%
